target: Dihydrofolate reductase (Rattus norvegicus, UniProt Q920D2); assay: Inhibition of rat liver DHFR in presence of saturating levels of NADPH and DHFA
Sequence (Q920D2 whole entry): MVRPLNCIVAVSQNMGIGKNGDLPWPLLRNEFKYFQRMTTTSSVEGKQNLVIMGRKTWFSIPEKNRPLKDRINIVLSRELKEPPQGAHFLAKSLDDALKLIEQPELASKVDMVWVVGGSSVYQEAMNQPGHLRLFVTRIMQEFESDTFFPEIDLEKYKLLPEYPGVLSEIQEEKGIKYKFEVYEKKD
Listed below: IC50 values for each entry.
Express your answer in µM, writing the number without its unit.

COc1ccccc1C(=Cc1coc2nc(=N)[nH]c(N)c12)C1CC1 (mixture of isomers) :: 10.3
COc1ccccc1C(=Cc1coc2nc(=N)[nH]c(N)c12)C(C)C (mixture of isomers) :: 11.9
COc1ccccc1C(Cc1coc2nc(N)nc(N)c12)C(C)C (racemic) :: 12.6
COc1ccccc1/C(C)=C/c1coc2nc(N)nc(N)c12 :: 18.5
CCCCC(Cc1coc2nc(N)nc(N)c12)c1ccccc1OC (racemic) :: 46.7

The reported value for COc1ccccc1C(Cc1coc2nc(N)nc(N)c12)C1CC1 (racemic) in terms of IC50 is 10.1

Summary for this compound, CCC(C)C(Cc1coc2nc(N)nc(N)c12)c1ccccc1OC (racemic) : IC50 is 34.5

IC50 in this record for CCCCC(=Cc1coc2nc(=N)[nH]c(N)c12)c1ccccc1OC (mixture of isomers) : 29.9

====

pIC50: −log10 of the molar value.
Here we list molecules with their recorded pIC50 when tested on Epidermal growth factor receptor (Homo sapiens, UniProt P00533).
Sequence (P00533 whole entry): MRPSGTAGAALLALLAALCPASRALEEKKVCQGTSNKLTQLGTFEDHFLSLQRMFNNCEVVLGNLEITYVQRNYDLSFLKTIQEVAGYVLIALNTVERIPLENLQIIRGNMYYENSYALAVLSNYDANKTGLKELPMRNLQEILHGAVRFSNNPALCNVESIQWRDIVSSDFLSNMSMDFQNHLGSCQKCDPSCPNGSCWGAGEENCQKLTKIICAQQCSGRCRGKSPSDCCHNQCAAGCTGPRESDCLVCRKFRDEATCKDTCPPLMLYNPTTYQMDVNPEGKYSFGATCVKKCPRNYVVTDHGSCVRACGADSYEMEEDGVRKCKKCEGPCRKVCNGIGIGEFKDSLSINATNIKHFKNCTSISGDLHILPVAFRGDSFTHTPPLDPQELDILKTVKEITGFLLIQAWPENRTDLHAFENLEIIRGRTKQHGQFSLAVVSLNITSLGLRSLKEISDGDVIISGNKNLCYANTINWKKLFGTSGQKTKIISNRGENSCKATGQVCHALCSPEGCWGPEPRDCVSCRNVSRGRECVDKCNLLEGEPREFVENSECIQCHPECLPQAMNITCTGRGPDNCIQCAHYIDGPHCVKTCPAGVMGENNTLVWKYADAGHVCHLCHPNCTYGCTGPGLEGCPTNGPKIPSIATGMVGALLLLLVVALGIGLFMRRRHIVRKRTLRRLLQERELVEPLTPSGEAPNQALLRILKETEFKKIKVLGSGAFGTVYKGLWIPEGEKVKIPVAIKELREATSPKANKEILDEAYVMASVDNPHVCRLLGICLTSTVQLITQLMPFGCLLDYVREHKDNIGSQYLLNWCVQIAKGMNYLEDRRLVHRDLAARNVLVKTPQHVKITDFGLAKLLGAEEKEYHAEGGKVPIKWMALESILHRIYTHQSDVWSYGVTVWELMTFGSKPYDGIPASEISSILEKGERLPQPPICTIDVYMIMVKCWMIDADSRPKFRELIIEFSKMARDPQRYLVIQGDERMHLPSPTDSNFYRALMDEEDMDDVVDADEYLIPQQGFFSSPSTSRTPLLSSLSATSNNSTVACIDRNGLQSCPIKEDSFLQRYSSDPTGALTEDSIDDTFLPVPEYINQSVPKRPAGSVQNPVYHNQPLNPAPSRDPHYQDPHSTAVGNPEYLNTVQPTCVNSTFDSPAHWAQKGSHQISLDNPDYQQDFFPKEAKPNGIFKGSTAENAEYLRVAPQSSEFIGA

COc1ccccc1/C(C)=C/c1coc2nc(N)nc(N)c12 :: < 4.30
COc1ccccc1C(=Cc1coc2nc(=N)[nH]c(N)c12)C1CC1 (mixture of isomers) :: < 3.70

Readout pIC50 for CCC(C)C(=Cc1coc2nc(=N)[nH]c(N)c12)c1ccccc1OC (mixture of isomers) , test system Epidermal growth factor receptor (Homo sapiens, UniProt P00533), was < 3.70

// returns pIC50 for COc1ccccc1C(=Cc1coc2nc(=N)[nH]c(N)c12)CC(C)C (mixture of isomers) with Epidermal growth factor receptor (Homo sapiens, UniProt P00533); value = < 3.70

Let me check: COc1ccccc1/C(C)=C\c1coc2nc(N)nc(N)c12 , system Epidermal growth factor receptor (Homo sapiens, UniProt P00533), measured pIC50 is < 3.70
